Numbers sourced from ChEMBL document CHEMBL1201862.

A collection of compounds and their measured EC50
# test system: Zinc finger protein mex-5 (Caenorhabditis elegans)
# Sequence (Q9XUB2 whole entry): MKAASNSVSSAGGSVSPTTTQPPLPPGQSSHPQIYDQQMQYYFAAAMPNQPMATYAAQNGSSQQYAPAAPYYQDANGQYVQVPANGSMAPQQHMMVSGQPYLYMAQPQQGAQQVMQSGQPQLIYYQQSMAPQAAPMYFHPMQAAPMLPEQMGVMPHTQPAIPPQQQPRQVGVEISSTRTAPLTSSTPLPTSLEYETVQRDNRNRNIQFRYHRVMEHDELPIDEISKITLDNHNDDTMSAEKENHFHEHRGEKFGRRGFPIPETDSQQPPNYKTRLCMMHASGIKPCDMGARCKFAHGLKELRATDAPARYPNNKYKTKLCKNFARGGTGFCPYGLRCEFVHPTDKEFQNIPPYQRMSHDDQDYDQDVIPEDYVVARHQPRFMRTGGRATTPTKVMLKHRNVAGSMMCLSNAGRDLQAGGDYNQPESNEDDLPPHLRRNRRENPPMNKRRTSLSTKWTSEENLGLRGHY
# protocol: potency of MEX-5 RNA-binding blockers – biochemical, C. elegans, fluorescence polarization, dose response (AID 1960)
Active and inactive are the calls of the source.
recorded endpoint: EC50

INSERT INTO measurements (compound, recorded_endpoint, result) VALUES
  ('COC(=O)c1ccc(C)c(-n2c(C)cc(C=O)c2C)c1', 'EC50', '> 300 µM (not active)'),
  ('COc1cc(C2C(C#N)=C(N)OC3=C2C(=O)CCC3)c([N+](=O)[O-])cc1OC (stereo unspecified)', 'EC50', '13.8 µM (active)'),
  ('COc1cc2c3nnc(-c4ccc(F)cc4)c-3cn(Cc3ccc(C)cc3)c2cc1OC', 'EC50', '1.1 µM (inconclusive)'),
  ('Cn1cc(C=C2C(=O)NC(=O)NC2=O)c2ccccc21', 'EC50', '5.82 µM (inconclusive)'),
  ('CCOC(=O)[C@@]1(C#N)C(c2ccc(Cl)c(Cl)c2)[C@H](C(N)=O)N2C=C(C(C)=O)C=C[C@H]21 (stereo partly specified)', 'EC50', '24 µM (inconclusive)'),
  ('CC(C)c1ccc(C2C(C#N)=C(N)N3C(=C2C#N)Sc2ccccc23)cc1 (stereo unspecified)', 'EC50', '61.3 µM (active)'),
  ('N#CC(c1nc2ccccc2nc1OCCO)S(=O)(=O)c1ccccc1 (stereo unspecified)', 'EC50', '142 µM (inconclusive)'),
  ('CC(C)OC(=O)CC(=O)c1sc2nc3c(cc2c1N)CN(C)CC3', 'EC50', '19.3 µM (inconclusive)'),
  ('COC/C=C/C1=CC2=CC(=O)C(C)(OC(=O)c3cccs3)C(=O)C2=CO1 (stereo unspecified)', 'EC50', '51.8 µM (active)'),
  ('O=[N+]([O-])c1ccccc1S(=O)(=O)n1nnc2ccccc21', 'EC50', '> 300 µM (not active)'),
  ('CC1=CC(=C2N=C(c3ccccc3)OC2=O)C=C(C)O1', 'EC50', '12.3 µM (inconclusive)');

====

# test system: Aminopeptidase N (Plasmodium falciparum FcB1/Columbia, UniProt O96935)
# Sequence (O96935 whole entry): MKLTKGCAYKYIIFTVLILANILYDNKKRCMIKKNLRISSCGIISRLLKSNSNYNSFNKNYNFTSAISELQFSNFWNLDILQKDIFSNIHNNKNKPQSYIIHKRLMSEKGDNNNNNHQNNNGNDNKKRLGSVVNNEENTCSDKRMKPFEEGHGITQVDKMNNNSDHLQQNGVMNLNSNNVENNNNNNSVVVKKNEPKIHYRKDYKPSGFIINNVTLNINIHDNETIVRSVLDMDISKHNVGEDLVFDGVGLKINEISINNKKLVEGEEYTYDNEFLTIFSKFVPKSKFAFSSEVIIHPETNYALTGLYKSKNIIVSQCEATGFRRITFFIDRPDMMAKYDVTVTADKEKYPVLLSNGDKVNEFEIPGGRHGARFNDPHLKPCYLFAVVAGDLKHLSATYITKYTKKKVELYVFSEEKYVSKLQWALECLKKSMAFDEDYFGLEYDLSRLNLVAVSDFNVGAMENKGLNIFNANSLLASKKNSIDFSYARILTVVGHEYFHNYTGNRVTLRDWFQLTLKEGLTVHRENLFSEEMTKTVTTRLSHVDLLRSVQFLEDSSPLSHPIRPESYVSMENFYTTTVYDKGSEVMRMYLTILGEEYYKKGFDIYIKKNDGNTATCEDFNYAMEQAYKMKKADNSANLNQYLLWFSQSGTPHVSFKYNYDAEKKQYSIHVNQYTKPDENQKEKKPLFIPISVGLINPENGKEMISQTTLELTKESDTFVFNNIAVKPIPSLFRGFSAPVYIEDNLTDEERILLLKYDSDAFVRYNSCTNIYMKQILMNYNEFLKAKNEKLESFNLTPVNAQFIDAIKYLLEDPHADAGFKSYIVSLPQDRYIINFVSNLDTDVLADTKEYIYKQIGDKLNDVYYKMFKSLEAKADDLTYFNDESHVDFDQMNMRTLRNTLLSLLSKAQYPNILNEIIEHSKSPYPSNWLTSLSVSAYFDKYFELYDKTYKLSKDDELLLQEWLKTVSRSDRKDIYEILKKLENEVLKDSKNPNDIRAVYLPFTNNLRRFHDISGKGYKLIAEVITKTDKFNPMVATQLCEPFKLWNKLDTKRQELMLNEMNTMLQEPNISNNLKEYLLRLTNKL
# protocol: malaria alanyl aminopeptidase activity blockers – biochemical, fluorogenic H-Leu-NHMec substrate, 1536-well (AID 1445)
# Design: species or system Plasmodium falciparum 3D7, 3D7
Activity calls are given as the source filed them.
recorded endpoint: IC50

INSERT INTO results (compound, test_system, recorded_endpoint, result) VALUES
  ('COc1cc(/C=C2\SC(=S)NC2=O)ccc1OS(=O)(=O)c1ccccc1', 'Aminopeptidase N (Plasmodium falciparum FcB1/Columbia, UniProt O96935)', 'IC50', '38.6 µM (active)'),
  ('COc1ccc(/C=C2\SC(=S)N(C(C(=O)O)c3ccccc3)C2=O)c(OC)c1 (stereo not given)', 'Aminopeptidase N (Plasmodium falciparum FcB1/Columbia, UniProt O96935)', 'IC50', '21.9 µM (active)'),
  ('O=C(Nn1c(C2CCC2)nc2ccccc2c1=O)c1cccs1', 'Aminopeptidase N (Plasmodium falciparum FcB1/Columbia, UniProt O96935)', 'IC50', '8.54 µM (active)'),
  ('COc1cc(/C=N/NC(=O)C(Cc2c[nH]c3ccccc23)NC(=O)OCC(C)C)cc([N+](=O)[O-])c1O (stereo not given)', 'Aminopeptidase N (Plasmodium falciparum FcB1/Columbia, UniProt O96935)', 'IC50', '16.7 µM (active)'),
  ('CCCC(C)C1(CC)C(=O)N=C(Nc2ccccc2OC)NC1=O (stereo not given)', 'Aminopeptidase N (Plasmodium falciparum FcB1/Columbia, UniProt O96935)', 'IC50', '52.1 µM (active)');

====

# protocol: fluconazole-exposed Candida albicans growth modulators – fluorescence, retest, confirmation (AID 2467)
# Assay type: functional, cell-based
The source made the active and inactive calls.
recorded endpoint: EC50

INSERT INTO measurements (molecule, recorded_endpoint, result) VALUES
  ('O=C(NC(=S)NNC(=O)c1cc2ccccc2cc1O)c1ccco1', 'EC50', '2190 nM (active)'),
  ('COc1cc(NC(=S)N2CCN(S(=O)(=O)c3ccccc3)CC2)cc(OC)c1', 'EC50', '> 38000 nM (not active)'),
  ('CCCOc1cccc(C(=O)N/N=C/c2coc3ccccc3c2=O)c1', 'EC50', '> 38000 nM (not active)'),
  ('CCC(Oc1ccccc1)C(=O)Nc1ncc([N+](=O)[O-])s1 (stereo not given)', 'EC50', '1500 nM (active)'),
  ('CCCn1nc([N+](=O)[O-])c(C(C#N)c2nc3ccccc3s2)c(Cl)c1=O (stereo not given)', 'EC50', '661 nM (active)');

====

Quick reference for AC50 among some molecules
# test system: DNA repair protein RAD52 homolog (Homo sapiens)
# Sequence (P43351 whole entry): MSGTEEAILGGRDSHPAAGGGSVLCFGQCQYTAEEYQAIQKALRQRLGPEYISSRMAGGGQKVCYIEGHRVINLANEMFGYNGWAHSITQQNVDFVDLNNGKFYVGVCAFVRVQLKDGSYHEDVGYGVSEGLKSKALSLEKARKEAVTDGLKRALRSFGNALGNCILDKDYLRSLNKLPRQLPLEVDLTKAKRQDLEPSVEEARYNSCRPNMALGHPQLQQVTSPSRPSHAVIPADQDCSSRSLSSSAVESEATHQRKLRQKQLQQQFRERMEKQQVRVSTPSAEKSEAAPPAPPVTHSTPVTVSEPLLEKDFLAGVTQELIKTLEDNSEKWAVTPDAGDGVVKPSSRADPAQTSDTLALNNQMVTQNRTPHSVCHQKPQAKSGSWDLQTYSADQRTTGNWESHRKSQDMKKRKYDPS
# Assay type: functional, biochemical
Activity calls are given as the source filed them.
recorded endpoint: AC50

INSERT INTO measurements (smiles_text, test_system, recorded_endpoint, result) VALUES
  ('N=C(N)c1ccc(/N=N/c2c(O)ccc3c2[nH]c2ccccc23)cc1', 'DNA repair protein RAD52 homolog (Homo sapiens)', 'AC50', '2.15 µM (active)'),
  ('CC(=O)Nc1ccc(Nc2c3ccccc3nc3ccccc23)cc1', 'DNA repair protein RAD52 homolog (Homo sapiens)', 'AC50', '2.21 µM (active)'),
  ('CSc1nc(NCCCN(C)C)c2c3c(sc2n1)CN(C)CC3', 'DNA repair protein RAD52 homolog (Homo sapiens)', 'AC50', '10.1 µM (active)'),
  ('CC(=O)Nc1cc(-c2cccc(C(=O)NCCN(C)C)c2)cn2c(-c3cccc(C(F)(F)F)c3)cnc12', 'DNA repair protein RAD52 homolog (Homo sapiens)', 'AC50', '3.93 µM (active)'),
  ('COCCN=C(S)Nc1ccc2nc(N3CCN(C)CC3)cc(C)c2c1', 'DNA repair protein RAD52 homolog (Homo sapiens)', 'AC50', '13.2 µM (active)');

====

# test system: Rac GTPase-activating protein 1 (Homo sapiens, UniProt Q9H0H5)
# Sequence (Q9H0H5 whole entry): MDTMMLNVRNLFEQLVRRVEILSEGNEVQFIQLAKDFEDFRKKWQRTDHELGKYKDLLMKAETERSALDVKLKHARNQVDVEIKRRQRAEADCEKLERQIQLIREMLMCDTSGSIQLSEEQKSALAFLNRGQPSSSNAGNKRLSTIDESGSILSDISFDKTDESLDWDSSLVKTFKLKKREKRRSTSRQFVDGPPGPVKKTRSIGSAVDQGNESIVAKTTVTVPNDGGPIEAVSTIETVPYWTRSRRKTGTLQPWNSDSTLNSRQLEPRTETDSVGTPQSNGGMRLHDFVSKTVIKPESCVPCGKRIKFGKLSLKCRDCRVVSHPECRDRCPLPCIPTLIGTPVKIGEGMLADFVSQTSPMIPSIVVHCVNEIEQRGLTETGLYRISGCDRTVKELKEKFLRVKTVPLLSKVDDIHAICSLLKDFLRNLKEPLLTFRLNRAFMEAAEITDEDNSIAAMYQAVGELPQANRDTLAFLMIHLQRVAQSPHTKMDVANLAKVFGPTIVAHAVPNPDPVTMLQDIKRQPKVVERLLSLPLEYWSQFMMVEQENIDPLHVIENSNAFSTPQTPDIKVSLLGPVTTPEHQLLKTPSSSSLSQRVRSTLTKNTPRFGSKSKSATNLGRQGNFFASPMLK
# protocol: blockers of MgcRacGAP-driven Rac1 GTP hydrolysis – biochemical, ADP Hunter fluorescence, primary and confirmatory, confirmation (AID 624330)
# Type: functional
Activity calls are given as the source filed them.
Parameter IC50: see the listing below.
recorded endpoint: IC50

INSERT INTO assay_data (compound, result) VALUES
  ('O=C1C=CC(=Nc2nc(O)c(-c3c(O)[nH]c4ccccc34)s2)C=C1', '59.2 µM (active)'),
  ('N=C(N)c1ccc(/N=N/c2c(O)ccc3c2[nH]c2ccccc23)cc1', '12.7 µM (active)'),
  ('COc1cc(N)c2ncccc2c1OC', '56.3 µM (active)'),
  ('O=c1c(-c2ccc(O)cc2)coc2cc(O)ccc12', '91.3 µM (active)'),
  ('COc1cc(/C=N/NC(=O)CNC(=O)c2ccc3c(c2)OCCO3)ccc1O', '54.9 µM (active)'),
  ('CC(C)(C)N(Cc1ccc2c(c1)OCO2)C(=O)/C=C\[S+]([O-])c1ccccc1 (configuration not stated)', '125 µM (active)'),
  ('C=CCc1cc(C)ccc1OCCCn1ccnc1', '127 µM (active)');

====

# protocol: Luminescence Cell-Based Dose Retest to Confirm Inhibitors of Cancer Stem Cells. [Related pubchem assays (depositor defined):AID2717, AID2721]
# Format: functional
# experimental setup: Homo sapiens
Calls of active or inactive are those of the source.
recorded endpoint: AC50

INSERT INTO results (molecule, result) VALUES
  ('Oc1cccc(-c2nc3c4c(ncn3n2)-c2ccccc2CC42CCCC2)c1', '1160 nM (active)'),
  ('C=CCn1c2ccccc2c(=O)c2cc(C#Cc3cc(OC)cc(OC)c3)ccc21', '1940 nM (active)'),
  ('Cc1cccc(-c2cc3nc(C)cc(N4CC(C)CC(C)C4)n3n2)c1 (centres undefined)', '5010 nM (active)'),
  ('CC(C)(C)c1ccc(Oc2ccc(NC(=O)c3cccs3)cn2)cc1', '3900 nM (active)');

====

# test system: Endoribonuclease toxin MazF (Escherichia coli K-12, UniProt P0AE70)
# Sequence (P0AE70 whole entry): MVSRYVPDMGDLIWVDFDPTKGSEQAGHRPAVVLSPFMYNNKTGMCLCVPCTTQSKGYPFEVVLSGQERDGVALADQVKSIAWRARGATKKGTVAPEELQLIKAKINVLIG
# protocol: substrate-only fluorescence increase artefacts – biochemical, single-stranded RNase substrate, counter-screen for MazEF activator project, dose response (AID 588502)
# Type: functional
The source made the active and inactive calls.
Examples of compounds with documented EC50 follow.
recorded endpoint: EC50

INSERT INTO results (smiles_text, result) VALUES
  ('COC(=O)c1ccccc1NC(=O)Cn1cnc2c(cnn2-c2ccccc2)c1=O', '> 99 µM (inactive)'),
  ('Oc1ccccc1C=NN=Cc1c(O)ccc2ccccc12', '> 99 µM (inactive)'),
  ('CC(=O)N1C(=O)C(=C2C=C(C)OC(C)=C2)c2ccccc21', '> 99 µM (inactive)'),
  ('Cn1cc(C=C2C(=O)NC(=O)NC2=O)c2ccccc21', '21.1 µM (inactive)'),
  ('CC1=CC(=C2N=C(c3ccccc3)OC2=O)C=C(C)O1', '> 99 µM (inactive)'),
  ('Clc1cccc(/C(Cc2nc3ccccc3[nH]2)=N\Nc2ccccc2)c1', '> 99 µM (inactive)');
